Target entity: 5-hydroxytryptamine receptor 2A (Rattus norvegicus)
Sequence (P14842 whole entry): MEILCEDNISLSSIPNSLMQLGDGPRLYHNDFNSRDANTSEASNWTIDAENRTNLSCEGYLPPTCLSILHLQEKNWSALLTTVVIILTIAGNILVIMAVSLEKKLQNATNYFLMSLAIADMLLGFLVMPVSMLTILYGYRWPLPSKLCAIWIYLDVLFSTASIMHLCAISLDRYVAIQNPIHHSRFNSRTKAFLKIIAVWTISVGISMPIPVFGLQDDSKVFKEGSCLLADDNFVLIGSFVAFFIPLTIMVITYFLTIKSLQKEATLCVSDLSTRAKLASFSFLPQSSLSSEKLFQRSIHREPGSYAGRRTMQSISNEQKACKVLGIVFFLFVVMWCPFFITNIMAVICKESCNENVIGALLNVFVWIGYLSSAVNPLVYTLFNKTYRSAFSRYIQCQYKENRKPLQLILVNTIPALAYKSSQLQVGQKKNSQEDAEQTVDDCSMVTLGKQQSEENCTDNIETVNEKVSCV
Endpoint: pKi
By convention, pKi is the negative base-10 log of a molar concentration.

Could you tell me which pKi is on file for COc1ccc(NC(=O)c2ccc(-c3ccc(-c4noc(C)n4)cc3C)cc2)cc1N1CCN(C)CC1 ? 7.40

* * *

Target entity: 5-hydroxytryptamine receptor 4 (Cavia porcellus, UniProt O70528)
Sequence (O70528 whole entry): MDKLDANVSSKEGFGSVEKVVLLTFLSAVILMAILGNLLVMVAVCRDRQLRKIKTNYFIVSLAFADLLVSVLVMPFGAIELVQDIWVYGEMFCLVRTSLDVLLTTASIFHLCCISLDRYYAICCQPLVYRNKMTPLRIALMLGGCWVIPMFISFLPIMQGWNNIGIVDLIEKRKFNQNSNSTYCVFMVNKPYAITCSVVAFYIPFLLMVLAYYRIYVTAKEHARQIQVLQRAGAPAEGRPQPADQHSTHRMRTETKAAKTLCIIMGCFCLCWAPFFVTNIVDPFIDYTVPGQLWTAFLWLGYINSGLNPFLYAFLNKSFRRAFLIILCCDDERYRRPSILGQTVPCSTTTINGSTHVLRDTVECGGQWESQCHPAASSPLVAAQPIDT
Endpoint: Ki

Could you tell me which Ki is on file for COc1ccc(NC(=O)c2ccc(-c3ccc(-c4noc(C)n4)cc3C)cc2)cc1N1CCN(C)CC1 ? > 10 µM
